What pIC50 was measured for each of the following?
# experimentalTarget: human TLR9 (Homo sapiens, UniProt Q9NR96)
# Sequence (Q9NR96 26-1032): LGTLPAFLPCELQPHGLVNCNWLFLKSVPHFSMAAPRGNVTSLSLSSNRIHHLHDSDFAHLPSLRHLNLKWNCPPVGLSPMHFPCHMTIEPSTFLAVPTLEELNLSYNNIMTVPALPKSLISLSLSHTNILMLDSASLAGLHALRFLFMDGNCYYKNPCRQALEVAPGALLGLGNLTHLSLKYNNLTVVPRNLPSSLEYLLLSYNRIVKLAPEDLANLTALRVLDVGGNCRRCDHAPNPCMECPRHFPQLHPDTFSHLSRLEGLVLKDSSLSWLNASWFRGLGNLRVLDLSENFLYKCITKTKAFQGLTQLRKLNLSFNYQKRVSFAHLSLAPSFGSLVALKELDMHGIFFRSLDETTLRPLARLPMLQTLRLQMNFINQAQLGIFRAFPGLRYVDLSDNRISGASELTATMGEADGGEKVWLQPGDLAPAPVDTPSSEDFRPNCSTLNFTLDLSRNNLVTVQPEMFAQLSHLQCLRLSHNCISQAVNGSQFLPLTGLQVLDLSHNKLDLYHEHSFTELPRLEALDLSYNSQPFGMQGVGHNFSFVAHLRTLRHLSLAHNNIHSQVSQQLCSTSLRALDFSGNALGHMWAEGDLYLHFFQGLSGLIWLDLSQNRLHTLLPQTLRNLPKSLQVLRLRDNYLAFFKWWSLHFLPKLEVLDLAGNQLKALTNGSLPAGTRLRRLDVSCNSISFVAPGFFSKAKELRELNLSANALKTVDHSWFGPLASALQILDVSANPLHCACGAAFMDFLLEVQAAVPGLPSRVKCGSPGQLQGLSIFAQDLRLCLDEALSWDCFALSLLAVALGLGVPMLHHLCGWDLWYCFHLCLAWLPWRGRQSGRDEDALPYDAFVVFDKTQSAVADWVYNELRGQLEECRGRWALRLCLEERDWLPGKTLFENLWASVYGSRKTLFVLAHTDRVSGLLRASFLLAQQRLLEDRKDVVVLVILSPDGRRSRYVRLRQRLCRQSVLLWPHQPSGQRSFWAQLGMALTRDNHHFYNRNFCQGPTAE
# assay: TLR9 inhibition reporter assay (HEK-Blue SEAP)
# assayContext: HEK-Blue cells overexpressing human TLR9, ODN2006 5 nM, 22 hour incubation
Numbers only, as −log10 of the molar value.

molecule	pIC50
Cc1c(-c2cc3[nH]c(=O)n([C@H]4CC[C@@H](NC5CCOCC5)CC4)c3cc2C(C)C)cn2ncnc2c1C	4.89

Provide the reported pIC50 of each entry below, same order.
1. COc1cc(-c2cc3[nH]c(=O)n(C4CCC(N5CC6(COC6)C5)CC4)c3cc2C(C)C)cn2ncnc12 (stereo not shown)
2. Cc1cc2c(cc1-c1cc(C)c3ncnn3c1)[nH]c(=O)n2[C@H]1CC[C@@H](NCC(C)(C)C)CC1
3. CCCN1CCC[C@@H](n2c(=O)[nH]c3cc(-c4cc(OC)c5ncnn5c4)c(C(F)(F)F)cc32)C1
4. Cc1c(-c2cc3[nH]c(=O)n(C4CCC(N5CC(F)C5)CC4)c3cc2C(C)C)cn2ncnc2c1C (stereo not shown) [Example 280]
5. CCC(CC)CN[C@H]1CC[C@@H](n2c(=O)[nH]c3cc(-c4cc(OC)c5ncnn5c4)c(C(C)C)cc32)CC1
6. Cc1c(-c2cc3[nH]c(=O)n(C4CCC(N5CCCC(F)C5)CC4)c3cc2C(C)C)cn2ncnc2c1C (stereo not shown) [Example 273]
7. CCc1cc2c(cc1-c1cc(OC)c3ncnn3c1)[nH]c(=O)n2[C@@H]1CCCN(CC(CC)CC)C1

[out]
1. 4.85
2. 5.63
3. 4.87
4. 4.69
5. 5.68
6. 4.87
7. 5.13

Provide the reported pIC50 of each entry below, same order.
1. CCN1CCC[C@@H](n2c(=O)[nH]c3cc(-c4cc(OC)c5ncnn5c4)c(C(C)C)cc32)C1 [Example 138]
2. COC[C@@H]1CCN(C2CCC(n3c(=O)[nH]c4cc(-c5cc(OC)c6ncnn6c5)c(C(C)C)cc43)CC2)C1 (single isomer, unassigned) [Example 290]
3. CCC(CC)N1CCC[C@@H](n2c(=O)[nH]c3cc(-c4cc(OC)c5ncnn5c4)c(C)cc32)C1
4. COCCNC1CCC(n2c(=O)[nH]c3cc(-c4cn5ncnc5c(OC)c4C)c(C(C)C)cc32)CC1 (stereo not shown) [Example 257]

[out]
4.75
5.15
5.02
4.63
